SYSTEM NAME: recombinant human NK3 receptor (Homo sapiens, UniProt P29371)
Construct: expressed in transfected cells; host or cells: HEK293 cells, transient expression; membrane preparation
ASSAY NOTES: [3H]SR142801 competition binding assay
CONDITION SET: [3H]SR142801, membranes of HEK293 cells transiently expressing recombinant human NK3 receptor; read-out: hNK3 Ki
QUANTITY: Ki (nM)

* CN(C1CCN(CCC(C)(C(=O)NC(c2ccccc2)C(F)(F)F)c2ccc(Cl)c(Cl)c2)CC1)S(C)(=O)=O (stereo not shown) | 18.7
* CC(=O)N(C)C1CCN(CCC(C)(C(=O)N(C)Cc2ccc(Cl)c(C(F)(F)F)c2)c2ccc(Cl)c(Cl)c2)CC1 (stereo not shown) | 2.2

I: C[C@](CCN1CCC(N2CCCC2=O)CC1)(C(=O)N[C@H](CO)c1ccc(Cl)c(Cl)c1)c1ccc(Cl)c(Cl)c1 (single isomer, unassigned)
II: CC(C)(NC(=O)C(C)(CCN1CCC(N2CCCC2=O)CC1)c1ccc(Cl)c(Cl)c1)c1ccccc1 (stereo not shown)
III: CN(Cc1ccc(Cl)cc1)C(=O)C(CCN1CCC(N2CCCC2=O)CC1)c1ccc(Cl)c(Cl)c1 (stereo not shown)
IV: CN(Cc1cccc(C(F)(F)F)c1)C(=O)C(C)(CCN1CCC(NS(C)(=O)=O)CC1)c1ccc(Cl)c(Cl)c1 (stereo not shown)
V: CN(Cc1ccc(Cl)c(Cl)c1)C(=O)C(C)(CCN1CCC(N2CCCC2=O)CC1)c1ccc(Cl)c(Cl)c1 (stereo not shown)
Inquiry: Please rank these compounds by Ki in descending order. Your reply should list the labels following the order given in the request.
Reply text: II, IV, III, I, V

* * *

SYSTEM NAME: recombinant human NK3 receptor (Homo sapiens)
Construct: expressed in transfected cells; host or cells: HEK293 cells, transient expression; membrane preparation
Sequence (P29371 1-465): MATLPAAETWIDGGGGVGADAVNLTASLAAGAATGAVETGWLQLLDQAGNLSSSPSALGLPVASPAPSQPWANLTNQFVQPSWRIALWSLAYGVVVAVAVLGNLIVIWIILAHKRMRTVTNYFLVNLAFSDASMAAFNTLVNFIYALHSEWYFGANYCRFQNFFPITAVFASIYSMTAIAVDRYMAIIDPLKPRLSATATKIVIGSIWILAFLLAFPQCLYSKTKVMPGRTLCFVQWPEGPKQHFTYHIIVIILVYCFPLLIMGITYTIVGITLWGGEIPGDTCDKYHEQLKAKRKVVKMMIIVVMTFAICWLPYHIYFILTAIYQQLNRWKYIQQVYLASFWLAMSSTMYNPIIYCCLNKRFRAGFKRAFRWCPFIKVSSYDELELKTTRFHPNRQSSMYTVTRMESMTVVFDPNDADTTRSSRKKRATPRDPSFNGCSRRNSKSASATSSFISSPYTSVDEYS
ASSAY NOTES: [3H]SR142801 competition binding assay
CONDITION SET: [3H]SR142801, membranes of HEK293 cells transiently expressing recombinant human NK3 receptor; read-out: hNK3 Ki
QUANTITY: Ki (nM)

* CCN(C1CCN(CCC(C)(C(=O)N(C)Cc2ccc(F)c(C(F)(F)F)c2)c2ccc(Cl)c(Cl)c2)CC1)S(C)(=O)=O (centres unmarked) | 1.3
* CC(CCN1CCC(N2CCCC2=O)CC1)(C(=O)NCc1ccc(F)c(C(F)(F)F)c1)c1ccc(Cl)c(Cl)c1 (centres unmarked) | 3.4
* CN(Cc1ccccc1Cl)C(=O)C(F)(CCN1CCC(NS(C)(=O)=O)CC1)c1ccc(Cl)c(Cl)c1 (centres unmarked) | 159
* CC(CCN1CCC(NS(C)(=O)=O)CC1)(C(=O)NCc1cccc(OC(F)F)c1)c1ccc(Cl)c(Cl)c1 (centres unmarked) | 309
* CN(Cc1ccc(C(F)(F)F)c(F)c1)C(=O)C(CCN1CCC(NS(C)(=O)=O)CC1)c1ccc(Cl)c(Cl)c1 (centres unmarked) | 61.7

I: CN(Cc1ccccc1Cl)C(=O)C(CCN1CCC(NS(C)(=O)=O)CC1)c1ccc(Cl)c(Cl)c1 (centres unmarked)
II: CC(=O)N(C)C1CCN(CCC(C)(C(=O)N(C)Cc2ccc(F)c(C(F)(F)F)c2)c2ccc(Cl)c(Cl)c2)CC1 (single isomer, unassigned) [Example 121]
III: CN(Cc1ccccc1Cl)C(=O)C(C)(CCN1CCC(N2CCCC2=O)CC1)c1ccc(Cl)c(Cl)c1 (centres unmarked)
Inquiry: // smallest Ki at index 0, largest at the end Your reply should list the labels following the order given in the request.
Reply text: III, II, I

1: CC(=O)N(C1CC1)C1CCN(CCC(C)(C(=O)N[C@H](CO)c2ccc(F)cc2)c2ccc(Cl)c(Cl)c2)CC1 (single isomer, unassigned; diastereoisomer 2)
2: COc1ccc(C(CCN2CCC(N3CCCC3=O)CC2)C(=O)N(C)Cc2ccc(Cl)cc2)cc1 (centres unmarked)
3: CC(=O)N(C)C1CCN(CCC(C)(C(=O)N[C@@H](CO)c2ccc(Cl)c(Cl)c2)c2ccc(Cl)c(Cl)c2)CC1 (single isomer, unassigned; diastereoisomer 1)
4: CN(Cc1ccc(Cl)cc1)C(=O)C(C)(CCN1CCC(NS(C)(=O)=O)CC1)c1ccc(Cl)c(Cl)c1 (centres unmarked)
Inquiry: Please rank these molecules by Ki in descending order. Your reply should list the labels following the order given in the request.
Reply text: 2, 1, 4, 3
(2: 775 nM, 1: 165 nM, 4: 26.5 nM, 3: 5.6 nM)

a: CC(c1ccc(F)c(C(F)(F)F)c1)N(C)C(=O)C(C)(CCN1CCC(N2CCCC2=O)CC1)c1ccc(Cl)c(Cl)c1 (centres unmarked)
b: CC(NC(=O)C(C)(CCN1CCC(N2CCCC2=O)CC1)c1ccc(Cl)c(Cl)c1)c1ccccc1 (centres unmarked)
Inquiry: Sorting by Ki in descending order, would a or b appear first? Which one? Tell me its label.
Reply text: b
(b: 51.2 nM, a: 30.3 nM)
